test: protein stability index of a GFP-peptide fusion (yeast GPS) (PSI 1-4); higher = more stable; sorted into four equal gates, so the index is relative within each strain
stated-conditions: san1∆
measured-metric: protein stability index
Reply: number alone, nothing else.

Worked examples, 3 sequences total:
- DAAEEEKEEEAKEESDD [RPP2B]: 3.09
- IDKLSDVVMKATEPQMV [PRP8]: 2.42
- EYSPEILQIREEIPSKS [RRP6]: 2.54

// next item, protein stability index requested
*Q* Looking for the measured protein stability index of TGVVYNVTKSSVGVIIN [RPL21A] , can you help?
*A* 1.95

* * *

test: protein stability index of a GFP-peptide fusion (yeast GPS) (PSI 1-4); higher = more stable; sorted into four equal gates, so the index is relative within each strain
stated-conditions: doa10∆
Criterion: protein stability index meeting or surpassing 3. Met: t. Not met: f.

*Q* Tell me whether protein stability index is at least 3 here: SNASQMGNTGSGGYDNA [RPB3]
*A* t

*Q* Tell me whether protein stability index is at least 3 here: QHYKNNSISSQPASYHS [SSN2]
*A* f

*Q* Tell me whether protein stability index is at least 3 here: PAELEGLLDLERVIVVT [FAS2]
*A* f
